Test: self-splicing fitness, log relative to wild type (ln ratio); higher = more splicing; Tetrahymena group I intron in knt gene, E. coli kanamycin selection, DiMSum; sequences stand for … in CUCUCU…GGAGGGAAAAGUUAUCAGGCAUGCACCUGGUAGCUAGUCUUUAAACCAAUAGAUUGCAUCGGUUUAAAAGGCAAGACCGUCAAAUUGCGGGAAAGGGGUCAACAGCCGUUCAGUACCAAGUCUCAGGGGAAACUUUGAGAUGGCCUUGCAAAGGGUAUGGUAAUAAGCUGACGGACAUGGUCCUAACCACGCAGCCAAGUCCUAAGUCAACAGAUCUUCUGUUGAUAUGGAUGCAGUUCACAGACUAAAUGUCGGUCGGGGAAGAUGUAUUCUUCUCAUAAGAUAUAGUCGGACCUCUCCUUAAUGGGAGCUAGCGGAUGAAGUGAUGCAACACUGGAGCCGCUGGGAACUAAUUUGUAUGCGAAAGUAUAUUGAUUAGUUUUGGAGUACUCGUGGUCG;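 further: selection with 25 µg/mL kanamycin versus none on LB agar overnight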
Settings: 37 °C
Rule: self-splicing fitness (ln) of -0.9 or more gives true; anything lower gives false.

Recorded results for 4 sequences are shown here.
polymer_sequence=GUGUAGCAAUAUUACGGCAA answer_label=true
polymer_sequence=UGAAAGCAAUAUUACGAGAA answer_label=false
polymer_sequence=CAGGAGCAAUAUUACGUAGA answer_label=false
polymer_sequence=UUGCAGCAAUAUUACGGCCU answer_label=true

Is the recorded value of self-splicing fitness (ln) equal to or greater than -0.9 for this sequence? GAAUAGCAAUAUUACGACCA
true

Entry AGCUAGCAAUAUUACGUCCA : is its self-splicing fitness (ln) no less than -0.9?
true

In plain terms: is recorded self-splicing fitness (ln) at least -0.9 for GCAGAGCAAUAUUACGUCUU ?
false

Is the recorded value of self-splicing fitness (ln) equal to or greater than -0.9 for this sequence? AAUUAGCAAUAUUACGACCG
true

* * *

Assay: self-splicing fitness, log relative to wild type (ln ratio); higher = more splicing; Tetrahymena group I intron in knt gene, E. coli kanamycin selection, DiMSum; sequences stand for … in CUCUCU…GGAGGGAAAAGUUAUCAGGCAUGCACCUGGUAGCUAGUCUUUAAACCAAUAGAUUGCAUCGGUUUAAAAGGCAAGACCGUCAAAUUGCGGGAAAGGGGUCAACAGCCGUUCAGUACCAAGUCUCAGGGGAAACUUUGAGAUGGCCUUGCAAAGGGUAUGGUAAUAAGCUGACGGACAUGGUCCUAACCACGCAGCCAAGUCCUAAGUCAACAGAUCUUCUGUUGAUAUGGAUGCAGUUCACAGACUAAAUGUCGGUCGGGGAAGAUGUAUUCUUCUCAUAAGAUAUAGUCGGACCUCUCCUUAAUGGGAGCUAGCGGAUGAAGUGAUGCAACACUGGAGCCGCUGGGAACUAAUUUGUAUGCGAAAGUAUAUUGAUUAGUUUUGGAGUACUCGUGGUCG
Settings: 37 °C
MEASURED_QUANTITY: self-splicing fitness (ln)
# answer = number (no unit)

# count of solved cases: 5
polymer_sequence=GGAAAGCAAUAUUACGAUUG observed_value=-1.82
polymer_sequence=CCUCAGCAAUAUUACGAGCA observed_value=-2.87
polymer_sequence=CCGCAGCAAUAUUACGCGGU observed_value=-2.5
polymer_sequence=CCACAGCAAUAUUACGACAG observed_value=-0.0398
polymer_sequence=GUAGAGCAAUAUUACGUUCA observed_value=-0.627

Which self-splicing fitness (ln) reading was recorded for the sequence CGCUAGCAAUAUUACGAUUC ?
-2.12

Please report the recorded self-splicing fitness (ln) for CACUAGCAAUAUUACGCUCU .
-0.207

Would you mind telling me what self-splicing fitness (ln) value was observed for GCAAAGCAAUAUUACGCAUG ?
-2.97

* * *

Overview of reported self-splicing fitness (ln) across a group of sequences:
Assay: self-splicing fitness, log relative to wild type (ln ratio); higher = more splicing; Tetrahymena group I intron in knt gene, E. coli kanamycin selection, DiMSum; sequences stand for … in CUCUCU…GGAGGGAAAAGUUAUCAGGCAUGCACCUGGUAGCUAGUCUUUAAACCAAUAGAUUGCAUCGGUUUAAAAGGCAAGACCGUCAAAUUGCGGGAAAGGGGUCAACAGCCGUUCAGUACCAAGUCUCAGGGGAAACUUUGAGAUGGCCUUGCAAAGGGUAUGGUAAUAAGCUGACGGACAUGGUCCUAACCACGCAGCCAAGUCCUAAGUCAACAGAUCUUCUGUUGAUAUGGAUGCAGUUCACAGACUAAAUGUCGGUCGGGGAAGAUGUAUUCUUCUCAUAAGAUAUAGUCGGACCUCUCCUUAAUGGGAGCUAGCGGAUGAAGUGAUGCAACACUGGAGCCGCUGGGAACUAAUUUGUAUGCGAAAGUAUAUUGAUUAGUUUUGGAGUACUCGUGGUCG
Conditions: 30 °C

// worked examples, self-splicing fitness (ln) included
polymer_sequence=UAGCAGCAAUAUUACGUUCG measured_quantity="self-splicing fitness (ln)" observed_value=-0.326
polymer_sequence=CAUUAGCAAUAUUACGCCGC measured_quantity="self-splicing fitness (ln)" observed_value=-1.43
polymer_sequence=CGAGAGCAAUAUUACGAGGC measured_quantity="self-splicing fitness (ln)" observed_value=-1.83
polymer_sequence=ACCGAGCAAUAUUACGAGAC measured_quantity="self-splicing fitness (ln)" observed_value=-3.81
polymer_sequence=CAACAGCAAUAUUACGUAUA measured_quantity="self-splicing fitness (ln)" observed_value=-2.76
polymer_sequence=AGAGAGCAAUAUUACGGUAG measured_quantity="self-splicing fitness (ln)" observed_value=-1.46
polymer_sequence=GUCAAGCAAUAUUACGCAUC measured_quantity="self-splicing fitness (ln)" observed_value=-3.22
polymer_sequence=CACAAGCAAUAUUACGCUUA measured_quantity="self-splicing fitness (ln)" observed_value=-2.27
polymer_sequence=GUGCAGCAAUAUUACGGUGA measured_quantity="self-splicing fitness (ln)" observed_value=-0.753
polymer_sequence=CGCUAGCAAUAUUACGAAAU measured_quantity="self-splicing fitness (ln)" observed_value=-3.5

Endpoint output: self-splicing fitness (ln) of UGUUAGCAAUAUUACGUGCA . Value?
-0.172

Query: self-splicing fitness (ln); subject: GGCUAGCAAUAUUACGUUUU
-0.476

If you can, please state the reported self-splicing fitness (ln) value of UGACAGCAAUAUUACGCGCU .
-0.554

// lookup self-splicing fitness (ln) for GGUGAGCAAUAUUACGUCGC
-3.57

I would be grateful if you could share the reported self-splicing fitness (ln) for GGAAAGCAAUAUUACGAUUG .
-3.56

# query: self-splicing fitness (ln) of entry UGCGAGCAAUAUUACGGCGG
-1.21

* * *

Assay: self-splicing fitness, log relative to wild type (ln ratio); higher = more splicing; Tetrahymena group I intron in knt gene, E. coli kanamycin selection, DiMSum; sequences stand for … in CUCUCU…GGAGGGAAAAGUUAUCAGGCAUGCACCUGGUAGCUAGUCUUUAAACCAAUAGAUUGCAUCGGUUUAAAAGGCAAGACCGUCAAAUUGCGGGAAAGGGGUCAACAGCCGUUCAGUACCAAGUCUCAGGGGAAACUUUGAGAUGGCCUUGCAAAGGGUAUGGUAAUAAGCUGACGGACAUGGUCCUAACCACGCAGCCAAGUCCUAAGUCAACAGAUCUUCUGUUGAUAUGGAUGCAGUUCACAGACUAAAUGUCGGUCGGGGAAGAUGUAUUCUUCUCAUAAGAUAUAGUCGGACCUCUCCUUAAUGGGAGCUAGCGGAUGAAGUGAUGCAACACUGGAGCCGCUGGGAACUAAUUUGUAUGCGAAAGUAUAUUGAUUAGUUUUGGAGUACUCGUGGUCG
Details: 30 °C
Use Fulfilled when the recorded self-splicing fitness (ln) is no lower than -3; use Not fulfilled when it is lower.

Example cases with answers are listed next.
polymer_sequence=UACCAGCAAUAUUACGAAUU answer_label=Fulfilled
polymer_sequence=ACUGAGCAAUAUUACGCGGA answer_label=Fulfilled
polymer_sequence=CGCAAGCAAUAUUACGUUUA answer_label=Fulfilled
polymer_sequence=AUACAGCAAUAUUACGAUUG answer_label="Not fulfilled"
polymer_sequence=CCGUAGCAAUAUUACGAGCU answer_label="Not fulfilled"
polymer_sequence=CGGAAGCAAUAUUACGUAGU answer_label="Not fulfilled"
polymer_sequence=GCACAGCAAUAUUACGCUCC answer_label=Fulfilled
polymer_sequence=CCCGAGCAAUAUUACGAGGA answer_label=Fulfilled
polymer_sequence=GAGCAGCAAUAUUACGUUCC answer_label="Not fulfilled"
polymer_sequence=GAUGAGCAAUAUUACGGGAG answer_label="Not fulfilled"

# check: self-splicing fitness (ln) of UUAAAGCAAUAUUACGUCUC is greater than or equal to -3
Fulfilled

Identify whether the reported self-splicing fitness (ln) of the following sequence is -3 or greater: CAUGAGCAAUAUUACGCCGA
Fulfilled

Please indicate if the recorded self-splicing fitness (ln) for AGACAGCAAUAUUACGGCAG meets or exceeds -3.
Not fulfilled

Determine whether measured self-splicing fitness (ln) meets or exceeds -3 for AUUGAGCAAUAUUACGCGGU
Fulfilled

Decide: self-splicing fitness (ln) of CUUUAGCAAUAUUACGCCGA >= -3?
Fulfilled
